- system.under.test: cynomolgus monkey ABCC1 (UniProt Q864R9 1-1531)
- Sequence (Q864R9 whole entry): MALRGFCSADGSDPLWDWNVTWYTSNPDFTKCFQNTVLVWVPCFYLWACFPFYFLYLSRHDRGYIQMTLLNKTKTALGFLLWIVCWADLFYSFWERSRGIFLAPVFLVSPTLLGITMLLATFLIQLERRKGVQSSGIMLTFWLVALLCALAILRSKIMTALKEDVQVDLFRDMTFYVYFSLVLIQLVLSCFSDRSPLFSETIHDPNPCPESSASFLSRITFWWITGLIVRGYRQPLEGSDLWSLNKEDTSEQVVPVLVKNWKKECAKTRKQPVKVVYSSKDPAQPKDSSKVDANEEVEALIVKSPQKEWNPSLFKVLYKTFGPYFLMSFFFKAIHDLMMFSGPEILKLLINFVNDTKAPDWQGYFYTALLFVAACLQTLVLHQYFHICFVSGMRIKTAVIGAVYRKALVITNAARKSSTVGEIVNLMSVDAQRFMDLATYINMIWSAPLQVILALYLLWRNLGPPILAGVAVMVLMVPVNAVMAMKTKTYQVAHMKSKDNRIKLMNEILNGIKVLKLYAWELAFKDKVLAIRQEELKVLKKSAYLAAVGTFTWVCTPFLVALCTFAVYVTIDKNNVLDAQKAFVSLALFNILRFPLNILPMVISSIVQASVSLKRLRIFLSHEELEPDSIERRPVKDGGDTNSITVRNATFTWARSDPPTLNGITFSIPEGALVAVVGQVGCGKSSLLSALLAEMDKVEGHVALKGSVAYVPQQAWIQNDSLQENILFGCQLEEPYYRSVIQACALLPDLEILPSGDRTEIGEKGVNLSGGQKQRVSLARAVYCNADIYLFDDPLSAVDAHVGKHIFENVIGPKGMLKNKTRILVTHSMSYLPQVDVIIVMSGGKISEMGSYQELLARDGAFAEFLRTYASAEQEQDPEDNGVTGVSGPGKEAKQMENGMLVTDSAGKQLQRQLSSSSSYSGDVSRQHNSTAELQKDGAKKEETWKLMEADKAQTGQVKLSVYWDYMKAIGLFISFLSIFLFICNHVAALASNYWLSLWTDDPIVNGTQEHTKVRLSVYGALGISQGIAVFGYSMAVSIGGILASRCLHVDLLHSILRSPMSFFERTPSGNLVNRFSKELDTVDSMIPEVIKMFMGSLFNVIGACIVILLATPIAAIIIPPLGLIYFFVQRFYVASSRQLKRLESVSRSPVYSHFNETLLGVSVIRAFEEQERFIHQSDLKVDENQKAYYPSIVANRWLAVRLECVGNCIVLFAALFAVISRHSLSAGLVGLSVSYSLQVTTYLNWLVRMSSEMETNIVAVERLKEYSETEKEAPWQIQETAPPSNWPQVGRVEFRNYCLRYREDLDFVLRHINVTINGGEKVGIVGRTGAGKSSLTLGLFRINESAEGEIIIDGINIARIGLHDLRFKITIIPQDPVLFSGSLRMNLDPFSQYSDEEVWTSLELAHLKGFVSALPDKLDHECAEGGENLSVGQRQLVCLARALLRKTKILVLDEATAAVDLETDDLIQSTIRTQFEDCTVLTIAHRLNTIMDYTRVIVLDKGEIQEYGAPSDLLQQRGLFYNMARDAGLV
- method.description: FACS titration on C6 cells
Items are presented alongside their recorded Kd.

>  <binder>
C1.835 (antibody, V domains shown) VH: EVQLLESGPGLVQPSQTLSLTCTVSGFSLTNNGVSWVRQPPGKGLEWVAAMSSGGNIYYNSAFKSRLSISRHTSKSQVLLKMNSLQTEDTAMYFCARHRGYYGYNWGYFDYWGQGVMVTVSS VL: NIQLTQSPSLLSASVGDRVTLSCKGSQNIYNYLAWYQQKLGEAPKLLIYKTNSLQTDIPSRFSGSGSGTDYTLTISSLHSEDLATYYCCQYNNGYTFGAGTKLELK

>  <unit.info>
nM

>  <Kd>
575

$$$$
>  <binder>
C1.831 (antibody, V domains shown) VH: EVQLTESGPGLVQPSQTLSLTCTVSGFSLTSNGVSWVRQPPGKGLEWIAAISSGGNIYYNSVLKSRLSISRDTSKSQVFLKMSSVQTEDTAIYFCTRERGWNYPFITNGYYFDYWGQGVMVTVSS VL: EIMLTQSPSLLSASVGDRVTLSCKAGQNINNYLAWYQQKLGEAPKLLIYNANSLQTGIPSRFSGSGSGTDYTLTISSLQPEDVATYFCQQYNSWYTFGAGTKLEIK

>  <unit.info>
nM

>  <Kd>
8.7

$$$$
>  <binder>
C1.773 (antibody, V domains shown) VH: EIQLAQSGPELVKPGASVKMSCKASGYSFIGYFMNWVKQSHGKSLEWIGRINPYNGDTFYNQKFKGKATLTVDKSSSTAHMELRSLTSEDSALYYCTRSGWGYDVYSFDYWGQGTLVTVSS VL: DIQMTQTPSSLSASLGDRVTISCRASQDISNYLNWYQQKPDGTVKLLIYYTSRLHSGVPSRFSGSGSGTDYSLTISNLEQEDIATYFCQQGNTLPWTFGGGTKLEIK

>  <unit.info>
nM

>  <Kd>
2.7

$$$$
>  <binder>
C1.827 (antibody, V domains shown) VH: EVQLVESGPGLVQPSQTLSLTCTVSGFSLTNNGVSWVRQPPGKGLEWIAAISNGGNIYHNSALKSRLSISRNTAKSQVLLKMNSLQTEDTAMYFCARHRGYYGYNWGYFDYWGQGASVTVSS VL: NIQVTQSPSLLSASVGDRVTLSCKGSQNIYNYLAWYQQKLGEAPKLLIYKTNSLQTGIPSRFSGSGSGTDYTLTISSLHSEDLATYYCCQYNNGYTFGAGTKLELK

>  <unit.info>
nM

>  <Kd>
67.3

$$$$
